test system: S3 (γ-secretase like) processing of Notch (Mouse Notch1 with deleted extracellular domain); experiment: Whole cell functional Notch assay (HES1-SEAP reporter, P8H6 CHO-K1 cells); assay type: cell-based; conditions: Notch assay reference compounds, read-out: EC50 (Notch induced SEAP levels)
OBSERVABLE: EC50

>>> print(df.to_string())
                                   compound  observable  reported_measurement
0  CC(C)[C@H](O)C(=O)N[C@@H](C)C(=O)N[C@@H]1C(=O)N(C)CCc2ccccc21 [reference compound]        EC50                 68 nM

----------
tested on: Aβ42 generation from APP in CHO cells stably expressing hAPP-REPNL751; experiment: Aβ-lowering electrochemiluminescent (MSD ECL) assay of conditioned media, Aβ42; assay type: cell-based; conditions: electrochemiluminescent assay, hAPP-REPNL751 CHO cells; read-out: C42: EC50 for inhibition of Aβ42
pEC50: −log10 of the molar value. Counter-ions that a name gives are not always drawn.
Reported pEC50 values follow for various compounds
OBSERVABLE: pEC50

In [3]: df
Out[3]:
                                   compound  reported_measurement
0  CC[C@@H](C)[C@@H](COS(=O)(=O)O)NS(=O)(=O)c1ccc(Cl)s1 [Example 2, Hydrogen Sulfate, Sodium Salt]                  4.82
1  CCC(CC)[C@@H](COS(=O)(=O)O)NS(=O)(=O)c1ccc(Cl)s1 [Example 3, Hydrogen Sulfate, Sodium Salt]                  6.63
2  CC[C@H](C)[C@@H](COS(=O)(=O)O)NS(=O)(=O)c1ccc(Cl)cc1 [Example 4, Hydrogen Sulfate, Sodium Salt]                  4.82
3  O=S(=O)(O)OC[C@@H](NS(=O)(=O)c1ccc(Cl)s1)[C@@H](c1cc(F)cc(F)c1)C(F)(F)F [Example 6, Hydrogen Sulfate, Sodium Salt]                  5.89
4  O=S(=O)(O)OC[C@@H](NS(=O)(=O)c1ccc(Cl)s1)C(C(F)(F)F)C(F)(F)F [Example 1, Hydrogen Sulfate, Sodium Salt]                  6.35
